# Protocol Notes: reversal of MRP1-mediated doxorubicin resistance, pilot screen, H69AR cells, doxorubicin co-treatment (AID 601)
# Assay Conditions: H69AR cells + 2 uM doxorubicin, CellTiter-Glo, 72 h; measured here: viability with 2 uM doxorubicin; at 10 µM; stronger effect = lower value
Assay Readout: viability (%)

1. COC(=O)c1ccccc1NC(=O)C1CC=CCC1C(=O)O (stereo not drawn) ... 83.3
2. Cc1ccc2c(CC(=O)OCc3csc(C)n3)coc2c1 ... 96
3. O=S(=O)(NCc1ccc(Cl)cc1)c1cnc[nH]1 ... 82.7
4. Cc1cnc(NC(=O)CSc2nnc(-c3ccccc3)n2Cc2ccccc2)s1 ... 85.8
5. Cc1ccc(N2CCN(c3ccc(C)cc3)C(CC(=O)O)C2=O)cc1 (stereo not drawn) ... 93.2
6. c1ccc(OCc2nc(-c3ccccc3)no2)cc1 ... 89.9
7. N#CC1=C(N)OC2=C(CCC/C2=C/c2ccoc2)C1c1ccoc1 (stereo not drawn) ... 77.9
8. CCOc1ccc(NC(=O)C2CC(=O)N(CC)C(=Nc3ccc4c(c3)OCO4)S2)cc1 (stereo not drawn) ... 84.7
9. Cc1ccc(NC(=O)COC(=O)c2ccn(C)n2)cc1 ... 79.4
10. O=C(CN1C(=O)CCS(=O)(=O)c2ccccc21)NCc1ccc(F)cc1 ... 95.3
11. C(=C\c1ccccc1)/CSc1nnc(-c2ccccn2)n1Cc1ccco1 ... 68.2
12. COc1ccc(-c2cn3cc(C)ccc3n2)cc1OC ... 63.1
13. CC1Oc2ccccc2N(CC(=O)NCc2cccs2)C1=O (stereo not drawn) ... 94.5
14. O=C(Nc1ccc(N2CCOCC2)cc1)Nc1ccc2nc(-c3ccco3)c(-c3ccco3)nc2c1 ... 21.6
15. O=C(Nc1nnc(SCC(=O)N2CCCCC2)s1)C1CCCCC1 ... 88.8
16. Cc1cc(C)n(Cc2nc3ccccc3n2C)n1 ... 90.9
17. Nc1nnc(SCCOc2ccccc2)s1 ... 88.2
18. O=C(Nc1nccs1)c1ccc(Cl)c(S(=O)(=O)N2CCCCC2)c1 ... 96.7

Numbers sourced from PubChem BioAssay.
